Reported selectivity ratio values for the following compounds.
experiment: Therapeutic index, ratio of CC50 for African green monkey Vero cells to IC50 for VAVC infected in african green monkey Vero cells; type: toxicity; conditions: read-out: Ratio CC50/IC50
metric: selectivity ratio

* CCCCCCCCCCCCCCCCSSCCCCOP(=O)(O)CO[C@H](CO)Cn1ccc(N)nc1=O.N | 41
* CCCCCCCCCCCCCCSSCCCOP(=O)(O)CO[C@H](CO)Cn1ccc(N)nc1=O.N | 49.3
* CCCCCCCCCCCCSSCCCCCCOP(=O)(O)CO[C@H](CO)Cn1ccc(N)nc1=O.N | 17.8
* CCCCCCCCCCCCCCCCSSCCOP(=O)(O)CO[C@H](CO)Cn1ccc(N)nc1=O.N | 37.7
* CCCCCCCCCCCCSSCCCCOP(=O)(O)CO[C@H](CO)Cn1ccc(N)nc1=O | 40.6
* CCCCCCCCCCSSCCCCOP(=O)(O)CO[C@H](CO)Cn1ccc(N)nc1=O | 2.36
* CCCCCCCCCCCCCCCCCCSSCCCOP(=O)(O)CO[C@H](CO)Cn1ccc(N)nc1=O | 22.7
* CCCCCCCCCCCCCCCCSSCCCOP(=O)(O)CO[C@H](CO)Cn1ccc(N)nc1=O | 46.3
* CCCCCCCCCCCCSSCCCOP(=O)(O)CO[C@H](CO)Cn1ccc(N)nc1=O | 5.09
* CCCCCCCCCCCCCCSSCCCCCCOP(=O)(O)CO[C@H](CO)Cn1ccc(N)nc1=O.N | 15.6
* CCCCCCCCCCCCCCCCCCSSCCOP(=O)(O)CO[C@H](CO)Cn1ccc(N)nc1=O.N | 34.8
* CCCCCCCCCCSSCCCCCCOP(=O)(O)CO[C@H](CO)Cn1ccc(N)nc1=O | 18.4
* CCCCCCCCCCCCCCSSCCOP(=O)(O)CO[C@H](CO)Cn1ccc(N)nc1=O.N | 68
* CCCCCCCCCCCCCCCCOCCCOP(=O)(O)CO[C@H](CO)Cn1ccc(N)nc1=O | 70.7
* CCCCCCCCCCSSCCOP(=O)(O)CO[C@H](CO)Cn1ccc(N)nc1=O | 32.7
* CCCCCCCCCCCCCCSSCCCCOP(=O)(O)CO[C@H](CO)Cn1ccc(N)nc1=O.N | 35
* CCCCCCCCCCSSCCCOP(=O)(O)CO[C@H](CO)Cn1ccc(N)nc1=O | 5.77
* CCCCCCCCCCCCSSCCOP(=O)(O)CO[C@H](CO)Cn1ccc(N)nc1=O | 39.2

----------
experiment: Therapeutic index, ratio of CC50 for human A549 cells to IC50 for VAVC infected in human A549 cells; assay type: toxicity, cell-based; conditions: read-out: Ratio CC50/IC50
metric: selectivity ratio

• CCCCCCCCCCSSCCCOP(=O)(O)CO[C@H](CO)Cn1ccc(N)nc1=O = 5.91
• CCCCCCCCCCCCCCSSCCCCCCOP(=O)(O)CO[C@H](CO)Cn1ccc(N)nc1=O.N = 136
• CCCCCCCCCCCCCCCCSSCCCOP(=O)(O)CO[C@H](CO)Cn1ccc(N)nc1=O = 116
• CCCCCCCCCCCCSSCCOP(=O)(O)CO[C@H](CO)Cn1ccc(N)nc1=O = 216
• CCCCCCCCCCCCCCCCCCSSCCCOP(=O)(O)CO[C@H](CO)Cn1ccc(N)nc1=O = 44.6
• CCCCCCCCCCCCSSCCCOP(=O)(O)CO[C@H](CO)Cn1ccc(N)nc1=O = 23.5
• CCCCCCCCCCCCCCCCOCCCOP(=O)(O)CO[C@H](CO)Cn1ccc(N)nc1=O = 67
• CCCCCCCCCCCCCCCCSSCCOP(=O)(O)CO[C@H](CO)Cn1ccc(N)nc1=O.N = 96.1
• CCCCCCCCCCCCCCSSCCCOP(=O)(O)CO[C@H](CO)Cn1ccc(N)nc1=O.N = 227
• CCCCCCCCCCSSCCOP(=O)(O)CO[C@H](CO)Cn1ccc(N)nc1=O = 10.4
• CCCCCCCCCCCCSSCCCCOP(=O)(O)CO[C@H](CO)Cn1ccc(N)nc1=O = 76.8
